- Tested on: SF-268 CNS
- method-description: NCI tumour cell line growth inhibition, 48 h; in the data active = GI50 below about 0.43 µM; inactive = the rest
Use one of these outcomes when replying: active, inactive

Solved entries (count: 10):
* COC(=O)[C@@H]1CCCN1C(=O)[C@@H]1CCCN1C(=O)[C@@H](Cc1c[nH]c2ccccc12)NC(=S)Nc1cc(C(F)(F)F)cc(C(F)(F)F)c1 | inactive
* COc1ccc2c(c1)nc(N)c1c3cccnc3cn21 | active
* CC[CH2][Pb]([CH2]CC)([CH2]CC)[NH]S(=O)(=O)c1ccc(C)cc1 | active
* C=C(C)CCC(C)N1CCC(N2CCC(C(=O)NCCc3ccccc3)CC2)CC1 (stereo not given) | inactive
* Fc1ccc(Nc2nccc(-c3c(-c4ccc(C(F)(F)F)cc4)nn4ncccc34)n2)cc1F | inactive
* Cn1cc(-c2ccc(CNc3cc(-c4cnc5cc(OCCCN6CCCC6)ccn45)ncn3)cc2)cn1 | inactive
* Nc1nc(Nc2cccc(F)c2)nc2ccccc12 | inactive
* CC(=O)C1=C([O-])C(C)OC1=O.CC(=O)C1=C([O-])C(C)OC1=O.[NH-]C1CCCC[C@H]1[NH-].[Pt+4] (stereo not given) | inactive
* CCc1c[nH]c2ncnc(N3CC[C@@](N)(CNC(=O)c4ccc(F)cc4F)C3)c12 | inactive
* CS(=O)(=O)Nc1cc(-c2ccc3ncnc(Nc4ccc5c(cnn5Cc5ccc(F)cc5)c4)c3c2)cnc1Cl | inactive

Which result was noted for this molecule in the test: `CCOC(=O)c1cnn(-c2ccnc3c(C(F)(F)F)cccc23)c1N`
inactive

Which result was noted for this molecule in the test: `CCOC(=O)N1CCN(S(=O)(=O)c2oc(-c3ccc(Cl)cc3)nc2C#N)CC1`
inactive

Which result was noted for this molecule in the test: `Clc1ccc2nc(Oc3ccccc3)cnc2c1`
inactive

Which result was noted for this molecule in the test: `Cc1cn2c(/C=N/N/C(N)=N\N)c(-c3ccc(Cl)c([N+](=O)[O-])c3)nc2s1`
inactive

Which result was noted for this molecule in the test: CC1=CC(=O)C(C(C)=Nc2ccccc2Cl)C(=O)O1 (stereo not given)
inactive
